Target protein (sequence): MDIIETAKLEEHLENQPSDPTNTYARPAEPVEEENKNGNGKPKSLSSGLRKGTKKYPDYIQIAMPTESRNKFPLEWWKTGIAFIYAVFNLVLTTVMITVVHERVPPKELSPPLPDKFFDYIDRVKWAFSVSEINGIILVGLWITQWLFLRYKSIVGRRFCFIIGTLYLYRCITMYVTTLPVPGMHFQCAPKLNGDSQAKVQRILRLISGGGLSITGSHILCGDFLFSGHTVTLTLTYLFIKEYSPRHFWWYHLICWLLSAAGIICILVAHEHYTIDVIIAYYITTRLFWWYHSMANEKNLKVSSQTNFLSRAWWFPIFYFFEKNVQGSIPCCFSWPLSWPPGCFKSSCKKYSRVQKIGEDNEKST
Lab note: compare IC50 with 700 nM, writing True if less and False if equal or more.

Compound	Label
Fc1ccc(Cl)c(COc2cccc3onc(Nc4cccnc4)c23)c1 [Scheme I-2]	True
Fc1ccccc1COc1cccc2onc(Nc3cccnc3)c12 [Scheme I-4]	True
COc1ccccc1COc1cccc2onc(Nc3cccnc3)c12 [Scheme I-16]	True
Clc1cccc(COc2cccc3onc(Nc4cccnc4)c23)c1 [Scheme I-8]	True
Clc1cccc(Cl)c1COc1cccc2onc(Nc3cccnc3)c12 [Scheme I-26]	True
CCc1ccccc1COc1cccc2onc(Nc3cccnc3)c12 [Scheme I-1]	True
CCN(CC)CC(=O)Nc1noc2cccc(OCc3cc(F)ccc3Cl)c12 [Scheme I-35]	False
c1ccc(COc2cccc3snc(Nc4cccnc4)c23)cc1 [Scheme I-31]	False
N#Cc1ccccc1COc1cccc2onc(Nc3cccnc3)c12 [Scheme I-22]	False
